The reported measurements were obtained from PubChem BioAssay (Tox21).

- protocol.details: qHTS assay to identify small molecule agonists of the androgen receptor (AR) signaling pathway in the presence of an antagonist - cell viability counter screen (AID 1259379); also: nearly all actives have a fitted effect of over 25% in size
- test.conditions: MDA-kb2 viability, CellTiter-Fluor, 16 h; series mostly up to 92.4 µM
Records with an inconclusive call do not appear. The source made the active and inactive calls. Calls follow the shape of the dose curve; as a rule, active = well fitted cell-killing curve with a large enough effect in the repeat runs; inconclusive = weak or mixed curves, or effect the other way; inactive = flat fitted curve, though single readings scatter.
Could you please pick one outcome from this set? 1 (yes) (active), 0 (no) (inactive)

**Q:** Could you please tell me the result logged for "c1ccc(CNCCNCc2ccccc2)cc1" in this assay?
**A:** 0 (no)

**Q:** Another molecule to look at: "O=C(OCCc1ccccc1)c1ccccc1"
**A:** 0 (no)

**Q:** Another molecule to look at: CC(COCCO)OCCO (stereo unspecified)
**A:** 0 (no)

**Q:** Another molecule to look at: "Nc1cccc([N+](=O)[O-])c1"
**A:** 0 (no)

**Q:** Another molecule to look at: "CN1CCC(N(Cc2cccs2)c2ccccc2)CC1"
**A:** 0 (no)

**Q:** Another molecule to look at: "CCCCCCCCCCO[C@@H]1O[C@H](CO)[C@@H](O)[C@H](O)[C@H]1O"
**A:** 0 (no)

**Q:** Another molecule to look at: O=C(O)C(S)C(S)C(=O)O (stereo unspecified)
**A:** 0 (no)

**Q:** Another molecule to look at: "COC(C)(C)CCO"
**A:** 0 (no)

**Q:** Another molecule to look at: "O=C(O)c1ccccc1Cl"
**A:** 0 (no)

**Q:** Another molecule to look at: "CCCCC"
**A:** 0 (no)

**Q:** Another molecule to look at: "CN1C[C@H]2c3ccccc3Oc3ccc(Cl)cc3[C@@H]2C1"
**A:** 0 (no)

**Q:** Another molecule to look at: CCCCC(CC)CN1C(=O)C2C3C=CC(C3)C2C1=O (stereo unspecified)
**A:** 0 (no)

**Q:** Another molecule to look at: "OCCNCc1ccccc1"
**A:** 0 (no)

**Q:** Another molecule to look at: "CC1=CC[C@H](C(C)C)C=C1"
**A:** 0 (no)

**Q:** Another molecule to look at: "CCCCO"
**A:** 0 (no)

**Q:** Another molecule to look at: "O=C(Nc1ccccc1)c1ccccc1O"
**A:** 1 (yes)
